biological target: OX2R (Homo sapiens (Human), UniProt O43614)
Sequence (O43614 whole entry): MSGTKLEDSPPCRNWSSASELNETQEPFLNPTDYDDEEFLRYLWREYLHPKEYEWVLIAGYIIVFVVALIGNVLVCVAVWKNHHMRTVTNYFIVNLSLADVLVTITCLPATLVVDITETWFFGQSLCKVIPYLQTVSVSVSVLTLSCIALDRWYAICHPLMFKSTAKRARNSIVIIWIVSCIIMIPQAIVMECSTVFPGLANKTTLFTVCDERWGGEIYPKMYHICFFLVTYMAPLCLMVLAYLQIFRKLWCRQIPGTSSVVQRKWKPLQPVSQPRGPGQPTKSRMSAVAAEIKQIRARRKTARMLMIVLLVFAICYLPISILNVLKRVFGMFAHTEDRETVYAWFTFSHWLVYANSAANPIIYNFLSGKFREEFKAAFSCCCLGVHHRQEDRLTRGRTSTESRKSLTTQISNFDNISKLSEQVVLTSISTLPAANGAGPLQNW
measurement name: Ki (nM)
Give bare numbers, in nM.

Enquiry: Entry COc1ccc(CNC(=O)c2cc(-c3cc(C)cc(C)c3)nnc2-c2cnn(C)c2)cc1OC : reported Ki = ?
Return: 3.3
